Recorded IC50, one value per entry.
Target: glucocorticoid receptor (GR) (Rattus norvegicus, UniProt P06536)
Construct: cytosol preparations that consist of the thymus homogenates of rats; from tissue; host or cells: rat thymus homogenate, cytosol
Sequence (P06536 1-795): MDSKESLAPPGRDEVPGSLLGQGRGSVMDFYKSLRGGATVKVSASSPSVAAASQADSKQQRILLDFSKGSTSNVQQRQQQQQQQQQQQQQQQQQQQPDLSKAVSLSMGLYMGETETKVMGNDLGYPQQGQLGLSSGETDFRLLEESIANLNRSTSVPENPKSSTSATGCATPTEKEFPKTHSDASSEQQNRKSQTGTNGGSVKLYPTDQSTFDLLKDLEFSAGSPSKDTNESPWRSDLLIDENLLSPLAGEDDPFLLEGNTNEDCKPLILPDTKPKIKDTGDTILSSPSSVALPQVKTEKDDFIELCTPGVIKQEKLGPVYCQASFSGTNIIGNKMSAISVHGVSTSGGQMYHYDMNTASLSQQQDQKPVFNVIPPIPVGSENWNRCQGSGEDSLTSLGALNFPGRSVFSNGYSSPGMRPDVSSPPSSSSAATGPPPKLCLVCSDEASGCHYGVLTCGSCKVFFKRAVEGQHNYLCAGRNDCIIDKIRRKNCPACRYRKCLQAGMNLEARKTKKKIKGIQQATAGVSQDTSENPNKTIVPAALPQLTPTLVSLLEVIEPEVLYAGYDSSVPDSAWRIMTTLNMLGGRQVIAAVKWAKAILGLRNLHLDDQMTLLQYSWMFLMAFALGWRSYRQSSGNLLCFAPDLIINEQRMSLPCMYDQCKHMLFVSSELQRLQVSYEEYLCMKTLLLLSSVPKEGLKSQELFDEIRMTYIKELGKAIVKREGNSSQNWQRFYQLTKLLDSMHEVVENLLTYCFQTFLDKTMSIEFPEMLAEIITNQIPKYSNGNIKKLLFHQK
Experiment: glucocorticoid receptor (GR)-binding test, cytosol of rat thymus homogenates, [3H]-dexamethasone
Settings: 10 nM [3H]-dexamethasone, rat thymus cytosol; read-out: IC50 (GR-binding test)
quantity_measured: IC50 (nM)

{"columns": ["compound", "recorded_number"],
 "data": [
  ["COc1ccc(F)cc1C(C)(C)CC(O)(C(=O)Nc1ccc2c(=O)onc(C)c2c1)C(F)(F)F (stereo not drawn) [iii]", 4.6],
  ["CC(C)(CC(O)(CNc1ccc2c(c1)COC2=O)C(F)(F)F)c1cc(F)ccc1O (stereo not drawn) [ii]", 2.3],
  ["COc1cc(Br)ccc1C(C)(C)CC(O)(C(=O)Nc1ccc2c(=O)onc(C)c2c1)C(F)(F)F (stereo not drawn) [iv]", 4.9]
]}

###

Biological target: glucocorticoid receptor (GR) (Rattus norvegicus)
Construct: cytosol preparations that consist of the thymus homogenates of rats; from tissue; host or cells: rat thymus homogenate, cytosol
Sequence (P06536 1-795): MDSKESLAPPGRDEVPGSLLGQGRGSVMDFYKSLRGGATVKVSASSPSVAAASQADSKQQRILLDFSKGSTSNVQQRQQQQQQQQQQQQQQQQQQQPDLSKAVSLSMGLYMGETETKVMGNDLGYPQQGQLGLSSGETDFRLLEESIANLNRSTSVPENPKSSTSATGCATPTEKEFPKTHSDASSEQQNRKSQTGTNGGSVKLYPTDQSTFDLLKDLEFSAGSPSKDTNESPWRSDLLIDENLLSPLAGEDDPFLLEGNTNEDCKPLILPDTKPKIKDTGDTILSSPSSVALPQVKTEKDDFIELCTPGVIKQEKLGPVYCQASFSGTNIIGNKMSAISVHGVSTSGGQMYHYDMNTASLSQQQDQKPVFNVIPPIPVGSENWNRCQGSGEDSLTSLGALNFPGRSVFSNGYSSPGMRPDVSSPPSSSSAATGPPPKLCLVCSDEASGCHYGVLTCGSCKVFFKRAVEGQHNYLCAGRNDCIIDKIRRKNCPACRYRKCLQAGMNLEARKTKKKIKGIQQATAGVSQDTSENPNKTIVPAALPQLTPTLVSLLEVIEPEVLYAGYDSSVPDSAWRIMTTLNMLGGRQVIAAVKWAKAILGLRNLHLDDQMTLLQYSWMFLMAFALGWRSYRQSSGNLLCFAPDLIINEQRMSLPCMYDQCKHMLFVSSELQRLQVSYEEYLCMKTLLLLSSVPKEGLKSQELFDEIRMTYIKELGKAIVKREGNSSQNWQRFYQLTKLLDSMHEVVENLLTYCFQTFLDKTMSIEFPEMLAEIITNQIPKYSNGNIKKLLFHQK
Test: glucocorticoid receptor (GR)-binding test, cytosol of rat thymus homogenates, [3H]-dexamethasone
Recorded IC50, one value per entry.

{"columns": ["compound", "endpoint_unit", "IC50"],
 "data": [
  ["Cc1noc(=O)c2ccc(NC(=O)C(O)(CC(C)(C)c3cc(F)ccc3O)C(F)(F)F)cc12 (centres unmarked) [v]", "nM", 2.6],
  ["CC(C)(CC(O)(C(=O)Nc1ccc2c(c1)COC2=O)C(F)(F)F)c1cc(F)ccc1O (centres unmarked) [i]", "nM", 2.8]
]}

All values here come from patent US6323199A.
